# method_description: Octanol-PBS buffer distribution coefficient, log D of the compound at pH 7.4 by shake flask method
# Format: physicochemical
Below, each entry is listed with its recorded logD.

O=C(NCc1ccc(S(=O)(=O)c2cc(F)cc(F)c2)cc1)c1ccc2nccn2c1 3.2

Proceeding to the next compound to report its logD.
Ask | Entry O=C(NCc1ccc(S(=O)(=O)c2cccc(C(F)(F)F)c2)cc1)c1cnc2[nH]ncc2c1 : reported logD = ?
Reply | 3.4

----------
# method_description: Ratio of drug level in retina to plasma of Sprague-Dawley rat at 30 mg/kg, po qd for 2 days measured 6.5 hrs after last dose in presence of nicotinic acid
measurement_type: Kp at 6.5 h
The answer should be written as a number, with no unit following it.

Ask | Entry O=C(NCc1ccc(S(=O)(=O)c2cc(F)cc(F)c2)cc1)c1ccc2nccn2c1 : reported Kp at 6.5 h = ?
Reply | 0.3

----------
# method_description: Aqueous solubility of the compound in PBS at pH 7.2 by LC/CLND analysis
# Type: physicochemical
Below, each entry is listed with its recorded solubility.

CCCn1cc(S(=O)(=O)c2ccc(CNC(=O)c3cnc4[nH]ncc4c3)cc2)cn1 8.8 µM
CN(C)c1ccc(S(=O)(=O)c2ccc(CNC(=O)c3cnc4[nH]ncc4c3)cc2)cn1 < 1 µM
O=C(NCc1ccc(S(=O)(=O)c2cnc3ccccc3c2)cc1)c1cnc2[nH]ncc2c1 < 1 µM

Proceeding to the next molecule to report its solubility.
Ask | Entry O=C(NCc1ccc(S(=O)(=O)c2ccc(N3CCOCC3)nc2)cc1)c1cnc2[nH]ncc2c1 : reported solubility = ?
Reply | < 1 µM

----------
# method_description: Volume of distribution at steady state in NCR nude mouse at 5 mg/kg, iv
# Format: ADME, organism-based
# Set-up: dose 5 mg/kg, route intravenous
# measurement_conditions: in vivo, read-out: Vdss
measurement_type: Vd
Write the numeric value and follow it with the unit.

Ask | Entry O=C(NCc1ccc(S(=O)(=O)c2cccc(C(F)(F)F)c2)cc1)c1cnc2[nH]ncc2c1 : reported Vd = ?
Reply | 0.45 L/kg

----------
# method_description: Clearance in NCR nude mouse at 5 mg/kg, iv
# Assay type: ADME, organism-based
# Design: dose 5 mg/kg, route intravenous
# measurement_conditions: in vivo
measurement_type: clearance (mL/min/kg)
Note: unit mL/min/kg is implicit; provide only the numeric part.

Ask | Entry O=C(NCc1ccc(S(=O)(=O)c2cccc(C(F)(F)F)c2)cc1)c1cnc2[nH]ncc2c1 : reported clearance = ?
Reply | 3.3

----------
# method_description: Inhibition of C-terminal His-6-tagged cynomolgus monkey NAMPT expressed in Escherichia coli (DE3)-RIL cells after 30 mins by mass spectrometry-based analysis
# Parameters: species or system Macaca fascicularis
measurement_type: IC50 (nM)
Note: unit nM is implicit; provide only the numeric part.

Ask | Entry O=C(NCc1ccc(S(=O)(=O)c2cccc(C(F)(F)F)c2)cc1)c1cnc2[nH]ncc2c1 : reported IC50 = ?
Reply | 73

Ask | Entry O=C(NCc1ccc(S(=O)(=O)c2cc(F)cc(F)c2)cc1)c1ccc2nccn2c1 : reported IC50 = ?
Reply | 42

----------
# method_description: Drug uptake in Sprague-Dawley rat retina at 30 mg/kg, po single dose measured 6.5 hrs after dose
measurement_type: concentration at 6.5 h (nM)
Note: unit nM is implicit; provide only the numeric part.

Ask | Entry O=C(NCc1ccc(S(=O)(=O)c2cccc(C(F)(F)F)c2)cc1)c1cnc2[nH]ncc2c1 : reported concentration at 6.5 h = ?
Reply | 680

----------
# experimental_target: Nicotinamide phosphoribosyltransferase (Homo sapiens)
# Sequence (P43490 whole entry): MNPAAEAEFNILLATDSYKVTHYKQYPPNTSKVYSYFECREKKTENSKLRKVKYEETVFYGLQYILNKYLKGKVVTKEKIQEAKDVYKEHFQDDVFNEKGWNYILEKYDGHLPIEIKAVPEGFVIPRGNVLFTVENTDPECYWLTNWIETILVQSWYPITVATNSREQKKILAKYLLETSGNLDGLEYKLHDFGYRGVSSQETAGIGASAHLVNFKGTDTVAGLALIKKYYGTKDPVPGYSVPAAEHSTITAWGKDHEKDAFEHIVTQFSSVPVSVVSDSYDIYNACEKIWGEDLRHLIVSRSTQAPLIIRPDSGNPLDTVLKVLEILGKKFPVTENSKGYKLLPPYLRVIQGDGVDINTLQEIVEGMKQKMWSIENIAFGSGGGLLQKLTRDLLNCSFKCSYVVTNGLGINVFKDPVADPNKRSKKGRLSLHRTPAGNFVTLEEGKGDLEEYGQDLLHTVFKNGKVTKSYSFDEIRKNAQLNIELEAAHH
pIC50: −log10 of the molar value.
Assign y to entries whose pIC50 meets or exceeds 7; assign n to the rest.

COC1CCN(S(=O)(=O)c2ccc(CNC(=O)c3cnc4[nH]ncc4c3)cc2)CC1 n
CCCn1cc(S(=O)(=O)c2ccc(CNC(=O)c3cnc4[nH]ncc4c3)cc2)cn1 y
O=C(NCc1ccc(S(=O)(=O)c2ccccc2)cc1)c1cnc2[nH]ncc2c1 y
O=C(NCc1ccc(S(=O)(=O)c2cncc(C(F)(F)F)c2)cc1)c1cnc2[nH]ncc2c1 y
N#CC1CCN(S(=O)(=O)c2ccc(CNC(=O)c3cnc4[nH]ncc4c3)cc2)CC1 n

Next compound, please.
Ask | Kindly determine if pIC50 recorded for CCn1cc(S(=O)(=O)c2ccc(CNC(=O)c3cnc4[nH]ncc4c3)cc2)cn1 is above or exactly 7.
Reply | n

----------
UniProt P43490 measurements of log10 IC50, listed per entry.
# log10 transformed; quantity=IC50; unit=µM

O=C(NCc1ccc(S(=O)(=O)N2CCOCC2)cc1)c1cnc2[nH]ncc2c1 -0.43

Ask | Entry O=C(NCc1ccc(S(=O)(=O)c2cccc(OC(F)(F)F)c2)cc1)c1cnc2[nH]ncc2c1 : reported log10 IC50 = ?
Reply | -2.11

Ask | Entry NC1CCN(S(=O)(=O)c2ccc(CNC(=O)c3cnc4[nH]ncc4c3)cc2)CC1 : reported log10 IC50 = ?
Reply | -0.41

Ask | Entry O=C(NCc1ccc(S(=O)(=O)c2cncc(Cl)c2)cc1)c1cnc2[nH]ncc2c1 : reported log10 IC50 = ?
Reply | -1.96

Ask | Entry O=C(NCc1ccc(S(=O)(=O)N2CCC(O)CC2)cc1)c1cnc2[nH]ncc2c1 : reported log10 IC50 = ?
Reply | -0.39

Ask | Entry O=C(NCc1ccc(S(=O)(=O)c2ccccc2)cc1)c1ccc2[nH]ncc2n1 : reported log10 IC50 = ?
Reply | 0.11

Ask | Entry O=C(NCc1ccc(S(=O)(=O)c2cnc3ccccc3c2)cc1)c1cnc2[nH]ncc2c1 : reported log10 IC50 = ?
Reply | -2.09

Ask | Entry O=C(NCc1ccc(S(=O)(=O)c2ccc(N3CCOCC3)nc2)cc1)c1cnc2[nH]ncc2c1 : reported log10 IC50 = ?
Reply | -2.35

----------
# method_description: Apparent permeability from apical to basolateral side in MDCK cells at 10 uM by LC-MS/MS analysis
# Format: ADME, cell-based, Canis lupus familiaris
# measurement_conditions: dog
measurement_type: Papp A→B at 10 µM

CN(C)c1ccc(S(=O)(=O)c2ccc(CNC(=O)c3cnc4[nH]ncc4c3)cc2)cn1 1.5 ×10⁻⁶ cm/s

Ask | Entry O=C(NCc1ccc(S(=O)(=O)c2cncc(C(F)(F)F)c2)cc1)c1cnc2[nH]ncc2c1 : reported Papp A→B at 10 µM = ?
Reply | 4.4 ×10⁻⁶ cm/s

Ask | Entry O=C(NCc1ccc(S(=O)(=O)c2cnc3ccccc3c2)cc1)c1cnc2[nH]ncc2c1 : reported Papp A→B at 10 µM = ?
Reply | 1.6 ×10⁻⁶ cm/s

Ask | Entry O=C(NCc1ccc(S(=O)(=O)c2cccc(C(F)(F)F)c2)cc1)c1cnc2[nH]ncc2c1 : reported Papp A→B at 10 µM = ?
Reply | 11 ×10⁻⁶ cm/s

Ask | Entry O=C(NCc1ccc(S(=O)(=O)c2cccc(OC(F)(F)F)c2)cc1)c1cnc2[nH]ncc2c1 : reported Papp A→B at 10 µM = ?
Reply | 4 ×10⁻⁶ cm/s

Ask | Entry CCCn1cc(S(=O)(=O)c2ccc(CNC(=O)c3cnc4[nH]ncc4c3)cc2)cn1 : reported Papp A→B at 10 µM = ?
Reply | 1.9 ×10⁻⁶ cm/s

Ask | Entry O=C(NCc1ccc(S(=O)(=O)c2ccc(N3CCOCC3)nc2)cc1)c1cnc2[nH]ncc2c1 : reported Papp A→B at 10 µM = ?
Reply | 0.85 ×10⁻⁶ cm/s

Ask | Entry O=C(NCc1ccc(S(=O)(=O)c2cncc(Cl)c2)cc1)c1cnc2[nH]ncc2c1 : reported Papp A→B at 10 µM = ?
Reply | 2.5 ×10⁻⁶ cm/s

Ask | Entry O=C(NCc1ccc(S(=O)(=O)c2cc(F)cc(F)c2)cc1)c1cnc2[nH]ncc2c1 : reported Papp A→B at 10 µM = ?
Reply | 7.8 ×10⁻⁶ cm/s

----------
# method_description: Drug uptake in Sprague-Dawley rat retina at 30 mg/kg, po single dose measured 1 hr after dose
measurement_type: concentration at 1 h (nM)
Note: unit nM is implicit; provide only the numeric part.

Ask | Entry O=C(NCc1ccc(S(=O)(=O)c2cccc(C(F)(F)F)c2)cc1)c1cnc2[nH]ncc2c1 : reported concentration at 1 h = ?
Reply | 940

----------
# method_description: Half life in NCR nude mouse at 100 mg/kg, po
# Assay type: ADME, organism-based
# Parameters: dose 100 mg/kg, route oral
# measurement_conditions: in vivo
measurement_type: half-life (h)
Note: unit h is implicit; provide only the numeric part.

Ask | Entry O=C(NCc1ccc(S(=O)(=O)c2cccc(C(F)(F)F)c2)cc1)c1cnc2[nH]ncc2c1 : reported half-life = ?
Reply | 3.4

----------
# method_description: Fraction unbound in mouse plasma at 5 uM by LC-MS/MS analysis
# Assay type: ADME, cell-free
# label = 1.0 if fraction unbound at 5 µM < 0.05 else 0.0

CCCn1cc(S(=O)(=O)c2ccc(CNC(=O)c3cnc4[nH]ncc4c3)cc2)cn1 0.0
O=C(NCc1ccc(S(=O)(=O)c2cccc(C(F)(F)F)c2)cc1)c1cnc2[nH]ncc2c1 1.0
O=C(NCc1ccc(S(=O)(=O)c2ccc(N3CCOCC3)nc2)cc1)c1cnc2[nH]ncc2c1 1.0
CN(C)c1ccc(S(=O)(=O)c2ccc(CNC(=O)c3cnc4[nH]ncc4c3)cc2)cn1 1.0
O=C(NCc1ccc(S(=O)(=O)c2cc(F)cc(F)c2)cc1)c1cnc2[nH]ncc2c1 0.0

Ask | Strictly below 0.05 in fraction unbound at 5 µM? O=C(NCc1ccc(S(=O)(=O)c2cncc(Cl)c2)cc1)c1cnc2[nH]ncc2c1
Reply | 0.0

Ask | Strictly below 0.05 in fraction unbound at 5 µM? O=C(NCc1ccc(S(=O)(=O)c2cnc3ccccc3c2)cc1)c1cnc2[nH]ncc2c1
Reply | 1.0

Ask | Strictly below 0.05 in fraction unbound at 5 µM? O=C(NCc1ccc(S(=O)(=O)c2cccc(OC(F)(F)F)c2)cc1)c1cnc2[nH]ncc2c1
Reply | 1.0
